Reference source: ChEMBL document CHEMBL1201862

tested on: SNB-19; assay: NCI tumour cell line growth inhibition, 48 h
Activity calls are given as the source filed them. Rule as the data show it: active = GI50 up to about 1.1 µM and inactive = higher.
Labels: class 1 (active), class 0 (inactive)

C/N=C(\N)N/N=C(\C)c1ccc2oc3ccc(/C(C)=N/N/C(N)=N/C)cc3c2c1    class 0
O=C1Oc2ccccc2C(=O)/C1=C/N1C(=O)N/C(=C\c2cccc(O)c2)C1=O    class 0
CC1=C(CO)C2=C(C)C3(CC3)[C@@](C)(O)C(=O)C2=C1    class 1
C[C@@H]1C[C@@H](O)[C@]2(O)O[C@@H]3C[C@@]4(C=O)[C@@H](CC[C@@H]5[C@@H]4CC[C@]4(C)[C@@H](C6=CC(=O)OC6)CC[C@]54O)C[C@H]3O[C@@H]2O1    class 1
O=C1N=C2SC=C(NC(=S)Nc3ccccc3)N2NC12c1ccccc1-c1ccccc12    class 0
N=C(N)N/N=C(/c1ccccc1)c1ccc(O)cc1O    class 0
Brc1c(C#CCC(c2ccccc2)(c2ccccc2)c2ccccc2)ccc(C#CCC(c2ccccc2)(c2ccccc2)c2ccccc2)c1Br    class 0
NCC(O)CNCC/C=C\C/C=C\C/C=C\C/C=C\C/C=C\C/C=C\CCCCC/C=C\CCNCC(O)CN (stereo not drawn)    class 0
